These molecules were tested on Purified bacterial β-glucuronidases (Escherichia coli, UniProt P05804); pIC50 is the recorded read-out.
Please note pIC50 is a logarithmic value: minus log10 of concentration in mol/L. Answer with that number alone.

Examples with answers:
{"MOLECULE": "Cc1cccc(NC(=O)N(CCO)Cc2cc3cc(C)cc(C)c3[nH]c2=O)c1 [Ref #38′]", "pIC50": 5.78}
{"MOLECULE": "Cc1cc(C)c2[nH]c(=O)c(C(C)N(CCO)C(=O)Nc3ccc(F)cc3I)cc2c1 (centres unmarked) [Ref #30′]", "pIC50": 4.89}
{"MOLECULE": "Cc1cc(C)c2[nH]c(=O)c(C(C)N(CCO)C(=O)Nc3ccccc3C(C)C)cc2c1 (centres unmarked) [Ref #29′]", "pIC50": 5.19}
{"MOLECULE": "C#Cc1cc(F)ccc1NC(=O)N(CCO)Cc1cc2cc(C)cc(C)c2[nH]c1=O [Ref #45′]", "pIC50": 5.96}

Proceed to the following item.
Hey, Purified bacterial β-glucuronidases (Escherichia coli, UniProt P05804) data for Cc1cc(C)c2[nH]c(=O)c(CN(CCO)C(=O)Nc3cccc(C(C)C)c3)cc2c1 [Ref #41′] : pIC50 came out at 5.17
